# System: EGFR(G719C) (Homo sapiens, UniProt P00533, G719C)
# Sequence (P00533 25-1210 G719C): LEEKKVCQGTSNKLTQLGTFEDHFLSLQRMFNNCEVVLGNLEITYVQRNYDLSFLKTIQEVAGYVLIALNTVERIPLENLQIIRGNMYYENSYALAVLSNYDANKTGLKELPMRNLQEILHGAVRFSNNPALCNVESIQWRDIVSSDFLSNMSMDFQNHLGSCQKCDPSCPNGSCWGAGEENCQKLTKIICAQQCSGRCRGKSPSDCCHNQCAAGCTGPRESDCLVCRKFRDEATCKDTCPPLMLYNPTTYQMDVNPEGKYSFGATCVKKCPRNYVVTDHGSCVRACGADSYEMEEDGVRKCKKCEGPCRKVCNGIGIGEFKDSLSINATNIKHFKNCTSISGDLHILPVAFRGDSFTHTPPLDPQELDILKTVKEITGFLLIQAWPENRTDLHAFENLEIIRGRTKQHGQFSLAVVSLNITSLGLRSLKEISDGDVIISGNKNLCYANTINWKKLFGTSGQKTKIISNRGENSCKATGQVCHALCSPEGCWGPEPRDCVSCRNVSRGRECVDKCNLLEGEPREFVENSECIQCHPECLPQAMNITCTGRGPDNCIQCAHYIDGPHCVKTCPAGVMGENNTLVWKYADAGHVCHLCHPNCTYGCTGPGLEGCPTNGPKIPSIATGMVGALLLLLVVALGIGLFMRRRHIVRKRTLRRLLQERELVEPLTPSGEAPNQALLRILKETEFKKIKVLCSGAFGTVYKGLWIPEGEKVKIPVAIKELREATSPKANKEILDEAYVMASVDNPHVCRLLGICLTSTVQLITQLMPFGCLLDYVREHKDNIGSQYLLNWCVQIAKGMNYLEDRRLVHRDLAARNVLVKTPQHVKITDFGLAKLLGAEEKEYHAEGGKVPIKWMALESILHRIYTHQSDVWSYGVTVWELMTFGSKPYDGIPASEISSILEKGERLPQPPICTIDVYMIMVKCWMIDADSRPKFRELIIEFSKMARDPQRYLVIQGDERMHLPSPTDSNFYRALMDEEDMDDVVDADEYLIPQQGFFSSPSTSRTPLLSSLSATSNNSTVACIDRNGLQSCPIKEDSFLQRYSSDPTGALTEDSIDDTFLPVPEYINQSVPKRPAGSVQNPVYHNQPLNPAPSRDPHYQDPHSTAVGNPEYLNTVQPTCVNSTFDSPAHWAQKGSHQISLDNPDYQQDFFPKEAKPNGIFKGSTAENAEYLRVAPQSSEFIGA
# Measurement Notes: Kinase binding constant (Kd)
# Description: EGFR amplifications and/or mutations are common in GBM, estimated to occur in over 50% of patients.
Assay Readout: pKd
Answers are plain numbers, as −log10 of the molar value.

Form: molecule = C=CC(=O)Nc1cc(Nc2nccc(-n3ccc4cccnc43)n2)c(OC)cc1N(C)CCN(C)C [Compound 1] ; pKd = 8.66

* * *

# System: EGFR(L747-E749del, A750P) (Homo sapiens, UniProt P00533, A750P/DEL747-749)
# Sequence (P00533 with tags, fused parts or gaps DEL747-749/A750P): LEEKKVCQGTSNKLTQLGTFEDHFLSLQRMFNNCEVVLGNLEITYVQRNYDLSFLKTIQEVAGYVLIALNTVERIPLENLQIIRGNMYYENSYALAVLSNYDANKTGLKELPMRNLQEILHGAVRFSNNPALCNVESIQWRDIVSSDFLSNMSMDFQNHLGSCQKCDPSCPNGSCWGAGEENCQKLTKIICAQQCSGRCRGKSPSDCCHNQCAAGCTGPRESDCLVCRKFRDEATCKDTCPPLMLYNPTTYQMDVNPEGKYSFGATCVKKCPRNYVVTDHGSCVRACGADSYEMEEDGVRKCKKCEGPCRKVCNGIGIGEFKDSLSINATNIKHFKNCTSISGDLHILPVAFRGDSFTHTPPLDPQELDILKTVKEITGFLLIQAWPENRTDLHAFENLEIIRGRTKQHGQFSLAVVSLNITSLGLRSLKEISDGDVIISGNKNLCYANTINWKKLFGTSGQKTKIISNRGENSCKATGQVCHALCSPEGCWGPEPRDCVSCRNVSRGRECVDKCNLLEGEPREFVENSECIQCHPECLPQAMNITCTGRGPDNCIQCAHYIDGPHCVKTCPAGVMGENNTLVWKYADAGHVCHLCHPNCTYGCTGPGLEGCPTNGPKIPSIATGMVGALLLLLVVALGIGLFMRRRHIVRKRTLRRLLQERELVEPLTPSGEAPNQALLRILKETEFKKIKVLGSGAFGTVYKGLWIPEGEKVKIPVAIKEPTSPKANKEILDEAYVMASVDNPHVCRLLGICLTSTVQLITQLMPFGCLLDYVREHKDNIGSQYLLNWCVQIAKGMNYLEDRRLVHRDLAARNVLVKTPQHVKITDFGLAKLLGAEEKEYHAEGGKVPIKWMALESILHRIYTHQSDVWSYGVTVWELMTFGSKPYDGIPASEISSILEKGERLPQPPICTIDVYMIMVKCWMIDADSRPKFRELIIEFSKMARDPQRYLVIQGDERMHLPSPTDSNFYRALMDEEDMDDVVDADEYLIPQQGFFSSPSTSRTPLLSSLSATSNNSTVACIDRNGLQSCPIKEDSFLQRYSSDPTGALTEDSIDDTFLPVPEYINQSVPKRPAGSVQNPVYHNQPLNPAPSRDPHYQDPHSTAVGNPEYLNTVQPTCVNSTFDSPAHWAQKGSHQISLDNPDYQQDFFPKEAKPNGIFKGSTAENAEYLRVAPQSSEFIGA
# Measurement Notes: Kinase binding constant (Kd)
# Description: EGFR amplifications and/or mutations are common in GBM, estimated to occur in over 50% of patients.
Assay Readout: Kd (nM)
Numbers only, in nM.

Form: compound = C=CC(=O)Nc1cc(Nc2nccc(-n3ccc4cccnc43)n2)c(OC)cc1N(C)CCN(C)C ; Kd = 0.97

* * *

# Measurement Notes: Brain and plasma exposure after 5 hour intravenous infusion
# Format: in vivo, Sprague Dawley rats
# Cond: male, Sprague Dawley, rat, brain, iv, 3 mg/kg, 3 mg/kg IV infusion over 5 h, 5 h, individual animal; Compound 2 as metabolite in Compound 1-dosed rats; read-out: Brain/Plasma (ratios)
Assay Readout: Kp at 5 h
Give bare numbers.

{"Smiles String": "C=CC(=O)Nc1cc(Nc2nccc(-n3ccc4cccnc43)n2)c(OC)cc1N(C)CCNC", "Kp at 5 h": 1.35}

Form: molecule = C=CC(=O)Nc1cc(Nc2nccc(-n3ccc4cccnc43)n2)c(OC)cc1N(C)CCN(C)C ; Kp at 5 h = 22.2

* * *

# Measurement Notes: Brain and plasma exposure after single oral dose
# Assay type: in vivo, Sprague Dawley rats
# Cond: Sprague Dawley, rat, brain, po, 30 mg/kg, Compound 1 30 mg/kg PO, 7 hr, individual animal; read-out: Brain/Plasma (ratios)
Assay Readout: Kp at 7 h
Numbers only.

Form: molecule = C=CC(=O)Nc1cc(Nc2nccc(-n3ccc4cccnc43)n2)c(OC)cc1N(C)CCN(C)C ; Kp at 7 h = 26.9

* * *

# Measurement Notes: Oral dog 4-week toxicity study with toxicokinetics
# Assay type: in vivo, beagle dogs
# Cond: beagle, in vivo, po; dog Day 1, 10 mg/kg/day, Male; read-out: AUClast
Assay Readout: AUC(0-t) (ng·h/mL)
Answers are plain numbers, in ng·h/mL.

Form: compound = C=CC(=O)Nc1cc(Nc2nccc(-n3ccc4cccnc43)n2)c(OC)cc1N(C)CCN(C)C [Compound 1] ; AUC(0-t) = 1650

* * *

# Measurement Notes: Plasma, brain and lung levels after 7 days oral dosing
# Assay type: in vivo, Sprague Dawley Rats
# Cond: Sprague Dawley, rat, plasma; 50 mg/kg po qd 7 days, 24 hrs after last dosing, Female; read-out: Plasma
Assay Readout: concentration at 24 h (ng/mL)
Answers are plain numbers, in ng/mL.

Form: compound = C=CC(=O)Nc1cc(Nc2nccc(-n3ccc4cccnc43)n2)c(OC)cc1N(C)CCN(C)C ; concentration at 24 h = 244

* * *

# Measurement Notes: Plasma, brain and lung levels after 7 days oral dosing
# Type: in vivo, Sprague Dawley Rats
# Cond: Sprague Dawley, rat, plasma; 10 mg/kg po qd 7 days, 24 hrs after last dosing, Male; read-out: Plasma
Assay Readout: concentration at 24 h (ng/mL)
Numbers only, in ng/mL.

Form: molecule = C=CC(=O)Nc1cc(Nc2nccc(-n3ccc4cccnc43)n2)c(OC)cc1N(C)CCN(C)C ; concentration at 24 h = 10.6
